- TEST_METHOD_NOTES: NCI Yeast Anticancer Drug Screen. Data for the bub3 strain (AID 167)
- ASSAY_CONDITIONS: S. cerevisiae bub3 mutant strain, at 50.0 µM, hits give high values
- Procedure: Growth inhibition of yeast strains with defined genetic alterations is measured as a screen for potential anti-cancer activity. Selected strains with alterations in DNA damage repair or cell cycle control were exposed to compounds and growth inhibition was measured relative to vehicle treated controls. The strain used in this assay is bub3
Compounds without any hit were thinned out: in the full panel of roughly 79,000, 15% have a hit. Calls of active or inactive are those of the source. Rule as the data show it: active = growth inhibition above about 70%; inactive = the rest.
ENDPOINT: growth inhibition

For every item below, please supply its growth inhibition.
1. COc1ccc(OC)c(N=Cc2cccs2)c1
2. CNCc1cccs1
3. Cc1cc(=O)[nH]c(NNC(C#N)c2c(O)ccc3ccccc23)n1 (stereo not drawn)

1. 16.2% (inactive)
2. -17.6% (inactive)
3. 1.45% (inactive)

Reference for the values: PubChem BioAssay (NCI)
